target: Plasminogen (Homo sapiens, UniProt P00747); test: Binding affinity to human dansyl-EGR-chloromethylketone-plasmin complex assessed as loss of intrinsic tryptophan fluorescence by spectrofluorometric method
Sequence (P00747 97-580 limits assumed): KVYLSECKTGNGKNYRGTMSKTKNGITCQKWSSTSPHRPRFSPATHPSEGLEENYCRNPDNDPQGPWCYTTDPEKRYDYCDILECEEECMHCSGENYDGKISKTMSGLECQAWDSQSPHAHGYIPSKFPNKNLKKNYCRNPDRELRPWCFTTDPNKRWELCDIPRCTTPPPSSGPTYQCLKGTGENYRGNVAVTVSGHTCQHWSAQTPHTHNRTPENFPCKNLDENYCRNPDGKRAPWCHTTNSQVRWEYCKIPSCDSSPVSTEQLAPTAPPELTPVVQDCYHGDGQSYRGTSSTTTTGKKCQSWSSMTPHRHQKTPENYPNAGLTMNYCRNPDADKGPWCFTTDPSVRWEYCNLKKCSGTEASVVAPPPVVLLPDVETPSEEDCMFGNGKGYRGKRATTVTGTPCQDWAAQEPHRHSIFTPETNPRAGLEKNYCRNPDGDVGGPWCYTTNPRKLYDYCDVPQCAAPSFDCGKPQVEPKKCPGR
Sequence (P00747 581-810 limits assumed): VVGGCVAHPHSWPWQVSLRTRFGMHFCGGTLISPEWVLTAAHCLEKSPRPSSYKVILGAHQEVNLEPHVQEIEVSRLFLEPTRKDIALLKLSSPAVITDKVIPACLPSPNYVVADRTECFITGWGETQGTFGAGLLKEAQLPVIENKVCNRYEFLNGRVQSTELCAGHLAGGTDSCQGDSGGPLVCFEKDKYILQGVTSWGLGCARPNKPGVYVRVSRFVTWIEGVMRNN
measurementLabel: Kd (µM)
Write the value in µM as a bare number.

Ask: Given Cc1cc(COc2cc(OS(=O)(=O)O)cc3oc(-c4ccc(OS(=O)(=O)O)cc4)cc(=O)c23)c(C)cc1COc1cc(OS(=O)(=O)O)cc2oc(-c3ccc(OS(=O)(=O)O)cc3)cc(=O)c12 , state its recorded Kd.
Result: 5.4

---

Assignment: determine reported IC50 for the given molecules.
biological target: Plasminogen (Homo sapiens, UniProt P00747); test: Allosteric inhibition of full length human plasmin by using chromogenic substrate spectrozyme PL preincubated for 5 mins followed by substrate addition by spectrophotometric method
Value expressed in µM; do not type the unit.

Ask: # query: IC50 of entry Cc1cc(COc2cc(OS(=O)(=O)O)cc3oc(-c4ccc(OS(=O)(=O)O)cc4)cc(=O)c23)c(C)cc1COc1cc(OS(=O)(=O)O)cc2oc(-c3ccc(OS(=O)(=O)O)cc3)cc(=O)c12
Result: 20

Ask: What about O=c1cc(-c2ccc(OS(=O)(=O)O)cc2)oc2cc(OS(=O)(=O)O)cc(OCc3ccc(COc4cc(OS(=O)(=O)O)cc5oc(-c6ccc(OS(=O)(=O)O)c(OS(=O)(=O)O)c6)c(OS(=O)(=O)O)c(=O)c45)cc3)c12 ?
Result: 14

Ask: # iterate: O=c1cc(-c2ccc(OS(=O)(=O)O)cc2)oc2cc(OS(=O)(=O)O)cc(OCCCCOc3cc(OS(=O)(=O)O)cc4oc(-c5ccc(OS(=O)(=O)O)cc5)cc(=O)c34)c12
Result: 282

Ask: // repeat for O=c1c(O)c(-c2ccc(O)c(O)c2)oc2cc(O)cc(OCc3ccc(COc4cc(O)cc5oc(-c6ccc(O)c(O)c6)c(O)c(=O)c45)cc3)c12 and report
Result: 116

Data provenance: ChEMBL document CHEMBL4043061
